- Tested on: S. aureus
- Assay procedure: MIC, Gram-positive bacteria: S. aureus (strains not named)
- Format: cell-based
- Experimental conditions: Staphylococcus aureus, second unnamed S. aureus column (c6), read-out: Minimal Inhibitory Concentration (MIC) S. aureus
Parameter measured: MIC

Worked examples, 5 molecules total:
Molecule	MIC
CC1=C\[C@@H](O)CC(=O)Cc2nc(co2)C(=O)N2CCC[C@@H]2C(=O)O[C@H]([C@H](C)COC(=O)Nc2ccc(Br)nc2)[C@H](C)/C=C/C(=O)NC\C=C\1 [SA0110209]	16 µg/mL
CC1=C\[C@@H](O)CC(=O)Cc2nc(co2)C(=O)N2CCC[C@@H]2C(=O)O[C@H](C(C)(C)C)[C@H](C)/C=C/C(=O)NC\C=C\1 [SA0306004]	64 µg/mL
CC1=C\[C@@H](O)CC(N)Cc2nc(cs2)C(=O)N2CCC[C@@H]2C(=O)O[C@H](C(C)C)[C@H](C)/C=C/C(=O)NC\C=C\1 (stereo partly shown) [SA0110268]	> 64 µg/mL
CC1=C\[C@@H](O)CC(=O)Cc2nc(co2)C(=O)N2CCC[C@@H]2C(=O)O[C@H]([C@@H](C)COC(=O)Nc2ccccc2)[C@H](C)/C=C/C(=O)NC\C=C\1 [SA0110043]	32 µg/mL
CC1=C\[C@@H](O)CC(=O)Cc2nc(co2)C(=O)N2CCC[C@@H]2C(=O)O[C@H]([C@H](C)CO)[C@H](C)/C=C/C(=O)NC\C=C\1 [SA0110170]	> 64 µg/mL

Hi there! I need MIC for each item below, if you can.
1. CC1=C\[C@@H](O)CC(=O)Cc2nc(co2)C(=O)N2CCC[C@@H]2C(=O)O[C@H]([C@@H](C)CN2CCN(C)CC2)[C@H](C)/C=C/C(=O)NC\C=C\1 [SA0110241]
2. CC1=C\[C@@H](O)CC(=O)Cc2nc(co2)C(=O)N2CCC[C@@H]2C(=O)O[C@H]([C@@H](C)COC(=O)Nc2ccc(Br)nc2)[C@H](C)/C=C/C(=O)NC\C=C\1 [SA0110082]
3. CC1=C\[C@@H](O)CC(=O)Cc2nc(co2)C(=O)N2CCC[C@@H]2C(=O)O[C@H]([C@H](C)COC(=O)Nc2cnccn2)[C@H](C)/C=C/C(=O)NC\C=C\1 [SA0110215]
4. CC1=C\[C@@H](O)CC(=O)Cc2nc(co2)C(=O)N2CCC[C@@H]2C(=O)O[C@H]([C@@H](C)COC(=O)Nc2cc3ccccc3cn2)[C@H](C)/C=C/C(=O)NC\C=C\1 [SA0110118]
5. CC1=C\[C@@H](O)CC(=O)Cc2nc(co2)C(=O)N2CCC[C@@H]2C(=O)O[C@H]([C@@H](C)COC(=O)Nc2ccnc(Br)c2)[C@H](C)/C=C/C(=O)NC\C=C\1 [SA0110081]

1: > 64 µg/mL; 2: > 64 µg/mL; 3: > 64 µg/mL; 4: 8 µg/mL; 5: > 64 µg/mL

---

- Test system: H. influenzae ATCC 49247
Just a reminder that ties go to Not fulfilled: only MIC strictly below 4 µg/mL counts as Fulfilled.

Field: below-cutoff. Rule: recorded MIC strictly less than 4 µg/mL. Subject: CC1=C\[C@@H](O)C[C@@H](O)Cc2nc(co2)C(=O)N[C@H](C)C(=O)O[C@H](C(C)C)[C@H](C)/C=C/C(=O)NC\C=C\1 [madumycin II, Madumycin II, reference compound]
Fulfilled

Same thing, different compound: "CC1=C\[C@@H](O)CC(=O)Cc2nc(co2)C(=O)N2CCC[C@@H]2C(=O)O[C@H]([C@@H](C)COC(=O)Nc2ccc(C)cc2)[C@H](C)/C=C/C(=O)NC\C=C\1"
Not fulfilled

Next entry: "CC1=C\[C@@H](O)CC(=O)Cc2nc(co2)C(=O)N2CCC[C@@H]2C(=O)O[C@H]([C@@H](C)COC(=O)Nc2ccc(OC(F)(F)F)cc2)[C@H](C)/C=C/C(=O)NC\C=C\1"
Not fulfilled

---

Dear all, this message contains MIC results, target or system S. pneumoniae.
One number for each entry, in µg/mL.

Chemical structure	MIC (µg/mL)
CC1=C\[C@@H](O)CC(=O)Cc2nc(co2)C(=O)N2CCC[C@@H]2C(=O)O[C@H]([C@H](C)COC(=O)Nc2cccnc2)[C@H](C)/C=C/C(=O)NC\C=C\1	32
CC1=C\[C@@H](O)CC(=O)Cc2nc(co2)C(=O)N2CCC[C@@H]2C(=O)O[C@H]([C@H](C)COC(=O)Nc2ccc(Br)nc2)[C@H](C)/C=C/C(=O)NC\C=C\1	16
CC1=C\[C@@H](O)CC(=O)Cc2nc(co2)C(=O)N2CCC[C@@H]2C(=O)O[C@H]([C@@H](C)COC(=O)Nc2ccccc2)[C@H](C)/C=C/C(=O)NC\C=C\1	16

Now turn to the next molecule.
Given the molecule "CC1=C\[C@@H](O)CC(=O)Cc2nc(co2)C(=O)N2CCC[C@@H]2C(=O)O[C@H]([C@H](C)COC(=O)Nc2ccccn2)[C@H](C)/C=C/C(=O)NC\C=C\1" , what is its reported MIC?
32

---

- Tested on: S. aureus
- Assay procedure: MIC, Gram-positive bacteria: S. aureus (strains not named)
- Type: cell-based
- Experimental conditions: Staphylococcus aureus, second unnamed S. aureus column (c6), read-out: Minimal Inhibitory Concentration (MIC) S. aureus
Parameter measured: MIC (µg/mL)
One number for each entry, in µg/mL.

Sample records with MIC:
Molecule	Observed result
CC1=C\[C@@H](O)CC(=O)Cc2nc(co2)C(=O)N2CCC[C@@H]2C(=O)O[C@H]([C@H](C)COC(=O)Nc2cc3ccccc3cn2)[C@H](C)/C=C/C(=O)NC\C=C\1	4
CC1=C\[C@@H](O)CC(=O)Cc2nc(co2)C(=O)N2CCC=C2C(=O)O[C@H](C(C)C)[C@H](C)/C=C/C(=O)NC\C=C\1 [virginiamycin M1, Virginiamycin M1, reference compound]	2
CC1=C\[C@@H](O)CC(=O)Cc2nc(co2)C(=O)N2CCC[C@@H]2C(=O)O[C@H]([C@H](C)COC(=O)Nc2cc(C)on2)[C@H](C)/C=C/C(=O)NC\C=C\1	64
C[C@H]1COc2c(N3CCN(C)CC3)c(F)cc3c(=O)c(C(=O)O)cn1c23	0.12
CC1=C\[C@@H](O)C[C@@H](O)Cc2nc(co2)C(=O)N[C@H](C)C(=O)O[C@H](C(C)C)[C@H](C)/C=C/C(=O)NC\C=C\1 [madumycin II, Madumycin II, reference compound]	8

Please supply MIC for each of the following items, keeping them in order.
1. CC1=C\[C@@H](O)CC(=O)Cc2nc(co2)C(=O)N2CCC[C@@H]2C(=O)O[C@H]([C@@H](C)COC(=O)Nc2csc(C)n2)[C@H](C)/C=C/C(=O)NC\C=C\1
2. CC1=C\[C@@H](O)C[C@@H](O)Cc2nc(cs2)C(=O)N2CCC[C@@H]2C(=O)O[C@H](C(C)C)[C@H](C)/C=C/C(=O)NC\C=C\1
3. CC1=C\[C@@H](O)CC(=O)Cc2nc(co2)C(=O)N2CCC[C@@H]2C(=O)O[C@H]([C@H](C)COC(=O)Nc2ccc(C(F)(F)F)cc2)[C@H](C)/C=C/C(=O)NC\C=C\1

1: 32; 2: 16; 3: 8

---

- Test system: S. aureus
- Assay procedure: MIC, Gram-positive bacteria: S. aureus (strains not named)
- Type: cell-based
- Experimental conditions: Staphylococcus aureus, third unnamed S. aureus column (c7), read-out: Minimal Inhibitory Concentration (MIC) S. aureus
For each entry below, report its MIC value.
Numbers only, in µg/mL.

> print(dat)
                         chemical.structure  observed.result
1  CC1=C\[C@@H](O)CC(=O)Cc2nc(co2)C(=O)N2CCC[C@@H]2C(=O)O[C@H]([C@H](C)COC(=O)Nc2cc3ccccc3cn2)[C@H](C)/C=C/C(=O)NC\C=C\1                8

API: the following record is the query input.
Query: MIC; subject: "CC1=C\[C@@H](O)CC(=O)Cc2nc(co2)C(=O)N2CCC[C@@H]2C(=O)O[C@H]([C@@H](C)COC(=O)Nc2cc3ccccc3cn2)[C@H](C)/C=C/C(=O)NC\C=C\1"
16

---

- Test system: S. aureus
- Assay procedure: MIC, Gram-positive bacteria: S. aureus (strains not named)
- Assay type: cell-based
- Experimental conditions: Staphylococcus aureus, second unnamed S. aureus column (c6), read-out: Minimal Inhibitory Concentration (MIC) S. aureus
Parameter measured: MIC

Molecule	Parameter measured	Observed result
CC1=C\[C@@H](O)CC(=O)Cc2nc(co2)C(=O)N2CCC[C@@H]2C(=O)O[C@H]([C@@H](C)CN2CCOCC2)[C@H](C)/C=C/C(=O)NC\C=C\1	MIC	> 64 µg/mL

Below are some molecules; for each one, tell me its MIC.
1. CC1=C\[C@@H](O)CC(=O)Cc2nc(co2)C(=O)N2CCC[C@@H]2C(=O)O[C@H]([C@H](C)CF)[C@H](C)/C=C/C(=O)NC\C=C\1
2. CC1=C\[C@@H](O)CC(=O)Cc2nc(co2)C(=O)N2CCC[C@@H]2C(=O)O[C@H](C(C)C)[C@H](C)/C=C/C(=O)NC\C=C\1 [virginiamycin M2, Virginiamycin M2, reference compound]
3. COc1ccc(NC(=O)OC[C@@H](C)[C@H]2OC(=O)[C@H]3CCCN3C(=O)c3coc(n3)CC(=O)C[C@H](O)/C=C(C)/C=C/CNC(=O)/C=C/[C@H]2C)cc1
4. CC1=C\[C@@H](O)CC(=O)Cc2nc(co2)C(=O)N[C@H](Cc2ccccc2)C(=O)O[C@H](C(C)C)[C@H](C)/C=C/C(=O)NC\C=C\1
5. CC1=C\[C@@H](O)CC(=O)Cc2nc(co2)C(=O)N2CCC[C@@H]2C(=O)O[C@H]([C@H](C)COC(=O)Nc2ccc(C)cc2)[C@H](C)/C=C/C(=O)NC\C=C\1

64 µg/mL
16 µg/mL
16 µg/mL
64 µg/mL
16 µg/mL

Provide each entry's MIC from the list below.
1. CC1=C\[C@@H](O)CC(=O)Cc2nc(co2)C(=O)N2CCC[C@@H]2C(=O)O[C@H]([C@@H](C)COC(=O)Nc2ccc(F)cc2)[C@H](C)/C=C/C(=O)NC\C=C\1
2. CC1=C\[C@@H](O)CC(=O)Cc2nc(co2)C(=O)N2CCC[C@@H]2C(=O)O[C@H]([C@@H](C)COC(=O)Nc2ccc3ccccc3n2)[C@H](C)/C=C/C(=O)NC\C=C\1
3. CC1=C\[C@@H](O)CC(=O)Cc2nc(co2)C(=O)N[C@H](C)C(=O)O[C@H](C(C)C)[C@H](C)/C=C/C(=O)NC\C=C\1 [madumycin I, Madumycin I, reference compound]
4. CC1=C\[C@@H](O)CC(=O)Cc2nc(co2)C(=O)N2CCC[C@@H]2C(=O)O[C@H]([C@@H](C)COC(=O)Nc2cccnc2)[C@H](C)/C=C/C(=O)NC\C=C\1

1. 32 µg/mL
2. 16 µg/mL
3. 8 µg/mL
4. > 64 µg/mL
